// provenance: patent US20080044360A1

molecular target: T1, human collagen type I, acid soluble, extracted from placenta (Sigma C7774) (human, UniProt P02452 162-1218; P08123 80-1119); assay: dried collagen assay; further: test concentration or dose not given here
T1 construct: tissue extract, gelled and dried in wells; also called dried human collagen; h-Collagen
T1 sequence (P02452 162-1218 limits assumed, chain 1 of 2): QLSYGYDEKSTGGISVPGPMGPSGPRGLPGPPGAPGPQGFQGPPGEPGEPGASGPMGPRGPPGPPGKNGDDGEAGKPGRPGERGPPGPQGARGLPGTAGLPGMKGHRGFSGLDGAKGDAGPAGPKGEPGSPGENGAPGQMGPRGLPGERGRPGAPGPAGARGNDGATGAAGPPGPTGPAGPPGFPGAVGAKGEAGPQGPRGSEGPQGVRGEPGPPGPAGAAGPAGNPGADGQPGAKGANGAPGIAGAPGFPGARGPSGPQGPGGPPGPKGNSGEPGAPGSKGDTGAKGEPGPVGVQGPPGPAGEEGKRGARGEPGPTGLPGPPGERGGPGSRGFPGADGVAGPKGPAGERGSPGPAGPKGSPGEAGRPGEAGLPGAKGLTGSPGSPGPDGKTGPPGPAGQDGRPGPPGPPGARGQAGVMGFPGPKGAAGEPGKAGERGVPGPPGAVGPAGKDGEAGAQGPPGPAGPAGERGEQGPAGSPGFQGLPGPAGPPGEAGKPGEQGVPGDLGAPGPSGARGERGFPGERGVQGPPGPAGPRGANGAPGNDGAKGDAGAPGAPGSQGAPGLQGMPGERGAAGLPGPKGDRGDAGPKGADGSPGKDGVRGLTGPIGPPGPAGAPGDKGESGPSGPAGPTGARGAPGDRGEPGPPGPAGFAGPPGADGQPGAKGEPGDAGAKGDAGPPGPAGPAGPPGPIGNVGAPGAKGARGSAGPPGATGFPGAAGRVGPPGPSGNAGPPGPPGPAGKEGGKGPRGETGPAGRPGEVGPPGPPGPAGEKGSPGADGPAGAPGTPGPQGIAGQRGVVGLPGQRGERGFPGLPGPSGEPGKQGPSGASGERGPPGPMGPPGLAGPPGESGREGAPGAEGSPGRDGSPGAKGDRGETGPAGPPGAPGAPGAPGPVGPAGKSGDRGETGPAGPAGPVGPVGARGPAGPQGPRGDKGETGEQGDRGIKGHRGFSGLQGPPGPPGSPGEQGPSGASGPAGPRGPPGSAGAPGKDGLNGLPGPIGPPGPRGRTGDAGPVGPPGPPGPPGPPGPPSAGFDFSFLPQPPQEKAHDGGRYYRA
T1 sequence (P08123 80-1119 limits assumed, chain 2 of 2): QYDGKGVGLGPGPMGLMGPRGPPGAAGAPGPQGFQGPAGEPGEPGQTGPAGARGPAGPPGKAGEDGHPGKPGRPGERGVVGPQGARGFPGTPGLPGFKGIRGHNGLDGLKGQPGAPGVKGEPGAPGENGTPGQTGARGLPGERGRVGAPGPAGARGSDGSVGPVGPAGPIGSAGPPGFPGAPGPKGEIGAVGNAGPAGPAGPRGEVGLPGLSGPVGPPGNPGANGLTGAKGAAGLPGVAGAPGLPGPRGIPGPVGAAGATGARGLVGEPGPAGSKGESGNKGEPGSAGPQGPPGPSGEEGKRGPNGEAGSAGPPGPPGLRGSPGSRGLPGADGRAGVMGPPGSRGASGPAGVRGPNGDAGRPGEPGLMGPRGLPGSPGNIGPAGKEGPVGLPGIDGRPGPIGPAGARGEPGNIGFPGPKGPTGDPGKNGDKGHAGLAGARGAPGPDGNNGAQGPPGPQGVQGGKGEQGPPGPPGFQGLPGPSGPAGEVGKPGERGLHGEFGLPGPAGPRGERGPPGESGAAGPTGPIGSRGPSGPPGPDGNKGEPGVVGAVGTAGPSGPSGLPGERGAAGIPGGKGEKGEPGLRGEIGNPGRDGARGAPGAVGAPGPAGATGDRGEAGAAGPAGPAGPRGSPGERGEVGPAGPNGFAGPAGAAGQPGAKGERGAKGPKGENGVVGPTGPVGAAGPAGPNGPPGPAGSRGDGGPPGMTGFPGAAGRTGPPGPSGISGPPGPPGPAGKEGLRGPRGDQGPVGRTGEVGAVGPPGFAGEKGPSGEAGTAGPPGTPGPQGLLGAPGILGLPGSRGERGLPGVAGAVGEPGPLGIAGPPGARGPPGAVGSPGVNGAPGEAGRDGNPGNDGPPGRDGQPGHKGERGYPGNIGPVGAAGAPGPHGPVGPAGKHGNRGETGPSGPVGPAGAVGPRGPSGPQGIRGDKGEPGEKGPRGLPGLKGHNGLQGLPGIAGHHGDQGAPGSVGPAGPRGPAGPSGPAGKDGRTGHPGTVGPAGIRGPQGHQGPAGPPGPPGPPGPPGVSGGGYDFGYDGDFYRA
Bridge positions count the residues as written; N and C are the ends. Square brackets hold non-standard residues; d marks the D form. Ends that are not written are not given here.
measure: % bound (%)

Look over these answered cases.
binder	outputUnit	quantitativeResult
YHACYQAGCWI[dW] (disulfide 4-9 (inferred); not fully specified (C-terminus); printed as YHACYQAGCWIw, cyclic, disulfide) [SEQ ID NO 162]	%	18
DWTCS[dL]DEYTWHCNYE (disulfide 4-13 (inferred), cyclic, disulfide) [SEQ ID NO 183]	%	73

A = AHACYQAGCWIW (disulfide 4-9 (inferred), cyclic, disulfide) [SEQ ID NO 131]
B = NWKCWGVVKWECIWA (disulfide 4-12 (inferred), cyclic, disulfide) [SEQ ID NO 5]
Query: From the recorded data, which exceeds the other in % bound: A or B ? Kindly give the label for the entry you pick.
Result: B
(B: 24%, A: 7%)

a = YHACYQAGCWIY (disulfide 4-9 (inferred), cyclic, disulfide) [SEQ ID NO 106]
b = KWFCELMQDQWQCGSK (disulfide 4-13 (inferred), cyclic, disulfide) [SEQ ID NO 50]
Query: Could you check which of a and b has a smaller value for % bound? Kindly give the label for the entry you pick.
Result: a
(a: 9%, b: 18%)
